The measurements presented in this section are drawn from patent US10221177B2.

This section presents compounds with their documented Duration (0-2 Minutes) Average values.
# System: formalin-induced pain behaviors in the rat
# Assay Summary: Formalin-induced pain test (formalin model), duration of pain behaviors
# Format: in vivo
# Run Parameters: 1 mg/kg PO one hour prior to formalin, solution in 4% DMSO, 5% Tween-80, 20% Cremophor EL, 71% water
I only need the number, in s, no unit after it.

Please review the entries below; each comes with its answer.
Compound	Measurement Target	Duration (0-2 Minutes) Average
CC(=O)Cn1c(=O)c2c(ncn2[C@@H](C)C(=O)Nc2cncc(-c3cnc(N4CC5C(C4)C5(F)F)nc3)n2)n(C)c1=O (stereo partly drawn)	formalin-induced pain behaviors in the rat	94.8
CC(=O)Cn1c(=O)c2c(ncn2[C@@H](C)C(=O)Nc2cccc(-c3cnc(N4CC5C(C4)C5(F)F)nc3)n2)n(C)c1=O (stereo partly drawn)	formalin-induced pain behaviors in the rat	87.8
CC(=O)Cn1c(=O)c2c(ncn2[C@@H](C)C(=O)Nc2ccnc(-c3cnc(N4CC5C(C4)C5(F)F)nc3)n2)n(C)c1=O (stereo partly drawn)	formalin-induced pain behaviors in the rat	89.4
CCC(=O)Cn1c(=O)c2c(ncn2[C@@H](C)C(=O)Nc2cccc(-c3cnc(C)c(C(F)(F)F)c3)n2)n(C)c1=O	formalin-induced pain behaviors in the rat	91.1
Cc1nc(Cn2c(=O)c3c(ncn3[C@@H](C)C(=O)Nc3ccnc(-c4cnc(C)c(C(F)(F)F)c4)n3)n(C)c2=O)no1	formalin-induced pain behaviors in the rat	88.6

If you can, please state the reported Duration (0-2 Minutes) Average value of Cc1noc(Cn2c(=O)c3c(ncn3[C@@H](C)C(=O)Nc3cncc(-c4cnc(C(F)(F)F)nc4)n3)n(C)c2=O)n1 .
68.6

* * *

This section presents compounds with their documented pIC50 values.
# Measurement Target: human TRPA1 (Homo sapiens (Human), UniProt O75762)
# Sequence (O75762 whole entry): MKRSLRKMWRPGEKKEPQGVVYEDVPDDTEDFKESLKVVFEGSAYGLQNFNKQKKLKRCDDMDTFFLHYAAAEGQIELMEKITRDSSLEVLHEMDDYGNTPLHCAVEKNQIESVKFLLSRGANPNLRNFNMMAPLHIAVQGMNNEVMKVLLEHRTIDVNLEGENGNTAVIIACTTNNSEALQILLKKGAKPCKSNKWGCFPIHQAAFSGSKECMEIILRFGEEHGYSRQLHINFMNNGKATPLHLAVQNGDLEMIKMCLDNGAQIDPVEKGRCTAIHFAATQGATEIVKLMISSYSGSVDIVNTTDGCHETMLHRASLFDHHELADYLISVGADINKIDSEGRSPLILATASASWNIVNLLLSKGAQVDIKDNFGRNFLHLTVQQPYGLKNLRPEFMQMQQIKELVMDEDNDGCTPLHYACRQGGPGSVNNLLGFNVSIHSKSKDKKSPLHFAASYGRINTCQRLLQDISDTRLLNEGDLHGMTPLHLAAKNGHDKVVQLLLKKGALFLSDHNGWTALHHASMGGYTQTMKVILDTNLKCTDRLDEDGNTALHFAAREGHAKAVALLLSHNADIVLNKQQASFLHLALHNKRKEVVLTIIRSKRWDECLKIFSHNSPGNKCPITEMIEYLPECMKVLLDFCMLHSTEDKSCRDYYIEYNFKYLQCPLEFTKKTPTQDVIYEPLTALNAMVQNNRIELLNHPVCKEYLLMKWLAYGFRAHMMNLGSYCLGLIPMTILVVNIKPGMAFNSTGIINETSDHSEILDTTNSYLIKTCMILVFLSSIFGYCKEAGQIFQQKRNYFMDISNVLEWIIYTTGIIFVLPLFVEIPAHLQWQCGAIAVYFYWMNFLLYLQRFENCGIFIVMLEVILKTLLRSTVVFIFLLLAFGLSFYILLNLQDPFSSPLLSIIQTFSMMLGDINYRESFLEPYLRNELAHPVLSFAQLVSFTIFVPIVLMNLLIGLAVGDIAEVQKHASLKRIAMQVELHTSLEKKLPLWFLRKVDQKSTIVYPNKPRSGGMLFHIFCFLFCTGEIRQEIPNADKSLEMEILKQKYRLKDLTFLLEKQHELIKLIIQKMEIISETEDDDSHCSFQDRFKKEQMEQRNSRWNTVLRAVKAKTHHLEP
# Assay Summary: In vitro inhibition of human TRPA1, whole cell patch configuration
# Run Parameters: current activation 10 μM AITC, tested concentrations 320 pM to 3.2 μM, read-out: hTRPA1 IC50
Scale explanation: pIC50 corresponds to minus log10 of a concentration expressed in moles per litre.

Compound	pIC50
CCC(=O)Cn1c(=O)c2c(ncn2[C@@H](C)C(=O)Nc2csc(-c3cnc(C)c(C(F)(F)F)c3)n2)n(C)c1=O	9.00
CC(=O)Cn1c(=O)c2c(ncn2[C@@H](C)C(=O)Nc2csc(-c3cnc(C)c(Cl)c3)n2)n(C)c1=O	8.00
Cc1cc(Cn2c(=O)c3c(ncn3[C@@H](C)C(=O)Nc3cccc(-c4cnc(N5CCC[C@H]5C(F)(F)F)nc4)n3)n(C)c2=O)no1	9.00
CC(=O)Cn1c(=O)c2c(ncn2[C@@H](C)C(=O)Nc2csc(-c3cnc(N4CC5CC5C4)nc3)n2)n(C)c1=O (stereo partly shown)	8.70
Cc1cc(Cn2c(=O)c3c(ncn3CC(=O)Nc3csc(-c4cnc(C(F)(F)F)nc4)n3)n(C)c2=O)no1	7.77
Cc1cc(Cn2c(=O)c3c(ncn3CC(=O)Nc3cccc(N4CCC(C(F)(F)F)CC4)n3)n(C)c2=O)no1	7.59
COCC(=O)Cn1c(=O)c2c(ncn2[C@@H](C)C(=O)Nc2csc(-c3cnc(N4CC5CC5C4)cn3)n2)n(C)c1=O (stereo partly shown)	7.51
Cc1cc(Cn2c(=O)c3c(ncn3[C@@H](C)C(=O)Nc3cncc(-c4cncc(C(F)(F)F)c4)n3)n(C)c2=O)no1	8.30

As a next step, examine the compound that follows.
If you can, please state the reported pIC50 value of Cc1nc(Cn2c(=O)c3c(ncn3[C@@H](C)C(=O)Nc3cccc(-c4cnc(C)c(C(F)(F)F)c4)n3)n(C)c2=O)no1 .
7.80
